biological target: MAP kinase-interacting serine/threonine-protein kinase 1 (Homo sapiens) (UniProt Q9BUB5); conditions: at 1 µM;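 note: each value is an averaged percent inhibition of MKNK1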
Sequence (Q9BUB5 whole entry, looked up): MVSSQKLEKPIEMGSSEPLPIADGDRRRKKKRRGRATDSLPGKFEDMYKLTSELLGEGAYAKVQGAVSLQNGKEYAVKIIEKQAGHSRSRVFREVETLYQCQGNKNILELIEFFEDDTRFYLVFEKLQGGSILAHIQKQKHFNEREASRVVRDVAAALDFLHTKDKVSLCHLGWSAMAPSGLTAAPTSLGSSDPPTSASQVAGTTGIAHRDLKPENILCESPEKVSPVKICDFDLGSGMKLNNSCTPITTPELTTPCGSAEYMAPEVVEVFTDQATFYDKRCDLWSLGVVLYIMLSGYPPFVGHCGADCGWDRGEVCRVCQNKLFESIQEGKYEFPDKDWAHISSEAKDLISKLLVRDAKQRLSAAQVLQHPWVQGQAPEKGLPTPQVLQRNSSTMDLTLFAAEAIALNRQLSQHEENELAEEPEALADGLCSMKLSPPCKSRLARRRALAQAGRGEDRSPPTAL
endpoint.name: inhibition (%)
// return numeric value only (unit: %, not printed)

INPUT: Please supply the value of reported inhibition for the item CCn1c(-c2nonc2N)nc2c(C#CC(C)(C)O)nc(CN3CCCC3)cc21
OUTPUT: 0.88

INPUT: Output inhibition of Nc1ncnc2occ(-c3ccc(NC(=O)Nc4cccc(C(F)(F)F)c4)cc3)c12
OUTPUT: 38.7

INPUT: Hello, please tell me recorded inhibition for this one: CC(=O)Nc1cccc(C#Cc2cncnc2Nc2ccc(OCc3cccc(F)c3)c(Cl)c2)n1
OUTPUT: 18.7

INPUT: Answer with the recorded inhibition of CNC(=O)c1cncc(/C=C/c2c(Cl)cccc2Cl)c1 only.
OUTPUT: 6.73

INPUT: Provide inhibition value for the following compound: COc1cc2ncn(-c3cc(OCc4ccccc4C(F)(F)F)c(C(N)=O)s3)c2cc1OC
OUTPUT: 7.06

INPUT: Indicate the recorded inhibition value for this compound: Cc1cccc(-c2n[nH]cc2-c2ccc3ncccc3n2)n1
OUTPUT: 2.25

INPUT: For the compound Nc1ncnc2occ(-c3ccc(NC(=O)Nc4cc(C(F)(F)F)cc(C(F)(F)F)c4)cc3)c12 , give its measured inhibition value.
OUTPUT: 12.2

INPUT: Consider the compound CCCN1CCC=C(c2ccc(Nc3nc(Nc4ccccc4C(N)=O)c4cc[nH]c4n3)c(C)c2)C1 and give its recorded inhibition.
OUTPUT: 3.91

INPUT: Supply recorded inhibition for O=C1NC(=O)C(N2CCc3ccccc32)=C1c1ccc(Cl)cc1 here.
OUTPUT: 3.78

INPUT: For the compound NC(=O)c1cccc(Nc2nccc(Nc3cccc4[nH]ncc34)n2)c1 , report inhibition.
OUTPUT: 25.3

====

target: Tyrosine-protein kinase Fer (Homo sapiens) (UniProt P16591); settings: at 1 µM
Sequence (P16591 whole entry, looked up): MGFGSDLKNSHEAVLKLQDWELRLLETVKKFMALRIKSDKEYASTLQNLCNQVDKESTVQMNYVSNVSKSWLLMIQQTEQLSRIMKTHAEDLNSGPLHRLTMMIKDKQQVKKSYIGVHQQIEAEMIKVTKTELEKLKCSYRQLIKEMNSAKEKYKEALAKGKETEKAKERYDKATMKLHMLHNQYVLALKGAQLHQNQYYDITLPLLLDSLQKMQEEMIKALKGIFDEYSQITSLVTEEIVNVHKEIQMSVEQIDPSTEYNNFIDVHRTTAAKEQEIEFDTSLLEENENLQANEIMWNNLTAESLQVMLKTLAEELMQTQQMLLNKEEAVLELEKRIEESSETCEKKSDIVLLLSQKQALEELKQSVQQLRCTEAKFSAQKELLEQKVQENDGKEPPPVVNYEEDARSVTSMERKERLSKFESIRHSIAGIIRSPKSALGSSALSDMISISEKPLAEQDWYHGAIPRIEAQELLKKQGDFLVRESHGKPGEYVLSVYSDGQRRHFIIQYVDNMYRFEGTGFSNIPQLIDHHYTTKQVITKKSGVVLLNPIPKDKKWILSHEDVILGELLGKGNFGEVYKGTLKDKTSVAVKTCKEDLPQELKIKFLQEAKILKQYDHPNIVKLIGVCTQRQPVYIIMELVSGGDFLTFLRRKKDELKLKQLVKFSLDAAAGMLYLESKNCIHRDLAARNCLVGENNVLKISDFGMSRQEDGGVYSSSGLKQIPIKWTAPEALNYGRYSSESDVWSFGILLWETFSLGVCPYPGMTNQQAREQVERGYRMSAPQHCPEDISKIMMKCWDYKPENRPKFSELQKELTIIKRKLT
Description: GSK_PKIS: FER mean inhibition at 1 uM [Nanosyn]
Class (by inhibition) -- band A = under 3%, band B = from 3% up to 10%, band C = 10% and over

INPUT: Form: Item = COC(=O)Nc1nc2cc(Oc3cccc(NC(=O)Nc4cc(C(F)(F)F)ccc4F)c3)ccc2[nH]1 ; Class = ?
OUTPUT: band A

INPUT: Category lookup for the molecule COc1cc(C)c(NC(=O)CN(C)C)cc1Nc1nc(Nc2cccc(F)c2C(N)=O)c2cc[nH]c2n1
OUTPUT: band C

INPUT: Hi, small favor: classify COc1ccccc1Nc1ncc(-c2ccccc2)o1 by its inhibition when you get a moment.
OUTPUT: band C

INPUT: Please let me know in which category the item c1cnn2ncc(-c3ccnc(Nc4ccc5c(c4)OCCO5)n3)c2c1 belongs.
OUTPUT: band C

INPUT: Kindly state the category for this molecule: NS(=O)(=O)c1cccc(-c2ccc3c(NC(=O)C4CC4)n[nH]c3c2)c1
OUTPUT: band B

INPUT: Band of NC(=O)c1ccc(-c2nc(-c3ccccn3)c(-c3ccc4c(c3)OCO4)[nH]2)cc1 ?
OUTPUT: band B

INPUT: The entry to classify is COc1cc2c(cc1Nc1nc(N3CCc4ccccc43)c3cc[nH]c3n1)N(C(=O)CN(C)C)CC2 ; which class holds it?
OUTPUT: band C

INPUT: Band of Nc1nc(-c2ccccn2)c(-c2ccc3ncccc3n2)s1 ?
OUTPUT: band B

INPUT: Categorize the following entry: CCn1c(-c2nonc2N)nc2ccncc21
OUTPUT: band A

INPUT: Form: Item = CCN1CCC(CC(=O)Nc2n[nH]c3nc(-c4cccs4)c(Br)cc23)CC1 ; Class = ?
OUTPUT: band A

INPUT: Would you mind sorting CCCN1CCC(Oc2cc(Nc3nc(Nc4cccc(F)c4C(N)=O)c4cc[nH]c4n3)c(OC)cc2Cl)CC1 into the appropriate category?
OUTPUT: band C

INPUT: GET /class?item= Cc1cc(O)cc(C)c1/C=C/c1cncc(-c2nn[nH]n2)c1
OUTPUT: band C

INPUT: Class label required: O=C1Nc2ccc(C(=O)c3ccco3)cc2C1=Cc1cc(Cl)c(O)c(Cl)c1
OUTPUT: band C

INPUT: Pick a category. Item: [O-][S+]1CCN(Cc2ccc(-c3ccc4ncnc(Nc5ccc(OCc6ccccc6)c(F)c5)c4c3)o2)CC1
OUTPUT: band B

INPUT: Classify this molecule: CS(=O)(=O)CCN(CC#N)Cc1ccc(-c2ccc3ncnc(Nc4ccc(OCc5cccc(F)c5)c(Cl)c4)c3c2)o1
OUTPUT: band A

INPUT: Field: class (inhibition) — entry: CC(C)=Cc1cccc2c1/C(=N/Nc1ccc(S(N)(=O)=O)cc1)C(=O)N2
OUTPUT: band C

INPUT: For the record CS(=O)(=O)CCNCc1ccc(-c2ccc3ncnc(Nc4ccc(OCc5ccccc5)c(Cl)c4)c3c2)o1 , report the class its inhibition corresponds to.
OUTPUT: band C

INPUT: Each molecule maps to one class by inhibition. Which class for CCn1c(-c2nonc2N)nc2cnc(Oc3cccc(NC(=O)c4ccc(OCCN5CCOCC5)cc4)c3)cc21 ?
OUTPUT: band A

INPUT: Hey, which category is COc1cc2ncn(-c3cc(O[C@@H](C)c4ccccc4Cl)c(C(N)=O)s3)c2cc1OC in, do you know?
OUTPUT: band B

INPUT: Into which category would you place CN1CCC(C(=O)Nc2n[nH]c3nnc(-c4ccccc4)cc23)CC1 ?
OUTPUT: band B

INPUT: Returns: class label. Input: Cc1nn(C)c2cc(N(C)c3ccnc(Nc4cccc(S(N)(=O)=O)c4)n3)ccc12
OUTPUT: band C

INPUT: Kindly state the category for this molecule: Cc1nnc(-c2ccc(C)c(-c3ccc(C(=O)Nc4cccc(C#N)c4)cc3)c2)o1
OUTPUT: band A

INPUT: Category of CNC(=O)c1cncc(/C=C/c2c(Cl)cccc2Cl)c1 :
OUTPUT: band B

INPUT: # bin lookup: classify O=C1NC(=O)C(c2cccc(Cl)c2)=C1Nc1ccc(O)c(Cl)c1 by its inhibition
OUTPUT: band B

INPUT: Textbook exercise: identify the category of the molecule given here, Nc1ncnc2occ(-c3ccc(NC(=O)Nc4cc(C(F)(F)F)cc(C(F)(F)F)c4)cc3)c12 , according to its measured value.
OUTPUT: band C

INPUT: Field: class (inhibition) — entry: CCCN1CCC=C(c2ccc(Nc3nc(Nc4ccccc4C(N)=O)c4cc[nH]c4n3)c(C)c2)C1
OUTPUT: band C

INPUT: For this molecule, which bin applies? CCn1c(-c2nonc2N)nc2c(C#CC(C)(C)O)nc(OC[C@@H](N)c3ccccc3)cc21
OUTPUT: band B

INPUT: Please indicate the class for N#Cc1c(NC(=O)c2cccc3ccccc23)sc2c1CCCC2 based on its inhibition.
OUTPUT: band A

INPUT: Just checking, what class would you give CC(=O)Nc1cccc(C#Cc2cncnc2Nc2ccc(OCc3cccc(F)c3)c(Cl)c2)n1 here?
OUTPUT: band B

INPUT: In plain terms, what class is CCn1c(-c2nonc2N)nc2c(C#CC(C)(C)O)nc(CN3CCCC3)cc21 ?
OUTPUT: band A

INPUT: Form: Item = CCn1c(-c2nonc2N)nc2cncc(C(=O)N3CC[C@H](N)C3)c21 ; Class = ?
OUTPUT: band B

INPUT: Category lookup for the molecule CS(=O)(=O)CCNCc1nc(-c2ccc3ncnc(Nc4ccc(F)c(Cl)c4)c3c2)cs1
OUTPUT: band B

INPUT: Kindly state the category for this molecule: CC1=C(C(=O)Nc2ccc3[nH]ncc3c2)C(c2ccc(F)cc2)NC(=O)N1 (stereo not drawn)
OUTPUT: band A

INPUT: Kindly state the category for this molecule: Cn1cc(C=C2C(=O)Nc3cccnc32)c2ccccc21
OUTPUT: band C

INPUT: Hi there! Could you help me figure out the category for Fc1cccc(COc2ccc(Nc3ncnc4cc(-c5ccc[nH]5)sc34)cc2Cl)c1 please?
OUTPUT: band A

INPUT: State the band of O=C1NC(=O)C(c2ccccc2Cl)=C1Nc1cccc(O)c1
OUTPUT: band A
